Data origin, for the record: patent US10576062B2

SYSTEM_NAME: human LPA1 (Homo sapiens)
Construct: expressed in transfected cells; host or cells: Chinese hamster ovary (CHO) cells
Sequence (Q92633 whole entry): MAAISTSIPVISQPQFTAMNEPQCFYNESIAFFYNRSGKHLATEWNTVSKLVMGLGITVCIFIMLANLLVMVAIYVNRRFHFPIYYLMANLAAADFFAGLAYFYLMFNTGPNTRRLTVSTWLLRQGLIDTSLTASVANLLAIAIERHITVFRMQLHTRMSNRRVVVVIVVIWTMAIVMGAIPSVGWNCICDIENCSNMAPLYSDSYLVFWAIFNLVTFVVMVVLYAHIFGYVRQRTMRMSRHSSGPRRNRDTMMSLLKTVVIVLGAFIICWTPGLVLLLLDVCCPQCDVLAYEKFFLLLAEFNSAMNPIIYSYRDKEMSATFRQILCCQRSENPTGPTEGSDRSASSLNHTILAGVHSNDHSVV
TEST_SUMMARY: LPA1 functional antagonist assay (LPA-induced calcium flux)
Assay type: cell-based
CONDITION: read-out: hLPA1 IC50
ENDPOINT_NAME: IC50 (nM)

Use these answered entries as a reference point.
Cc1nc(-c2nnn(C)c2COC(=O)N(C)C2(c3ccccc3)CC2)ccc1O[C@H]1CCC[C@H](C(=O)O)C1
70
Cc1nc(-c2nnn(C)c2COC(=O)N2CCC(C)C2)ccc1O[C@H]1CCC[C@H](C(=O)O)C1 (mixture of isomers)
250
CC(C)CCN(C)C(=O)OCc1c(-c2ccc(O[C@H]3CCC[C@H](C(=O)O)C3)c(F)c2)nnn1C
3
CN(C(=O)OCc1c(-c2ccc(O[C@H]3CCC[C@H](C(=O)O)C3)c(F)c2)nnn1C)C1CCCC1
6
CCCN(C)C(=O)OCc1c(-c2ccc(O[C@H]3CCC[C@H](C(=O)O)C3)cc2)nnn1C (racemic)
1880

A = Cc1nc(-c2nnn(C)c2COC(=O)N(C)C2CC23CCC3)ccc1O[C@H]1CCC[C@@H](C(=O)O)C1 (stereo partly drawn)
B = Cc1nc(-c2nnn(C)c2COC(=O)N2CCCC2CC(C)C)ccc1O[C@H]1CCC[C@H](C(=O)O)C1 (mixture of isomers)
Of A and B , whose reported IC50 is numerically smaller? Pick one; state its label.
B
(B: 163 nM, A: 1820 nM)
